- System: Pseudomonas aeruginosa ATCC 27853
- Type: cell-based
- Setup conditions: ATCC 27853
Where a SMILES comes first, the peptide text is derived from it. Bridges are numbered along the chain shown (N, C = ends). [ ]: non-standard residue; d: D form. The star is where a group is joined. X37 = O=C(c1ccc(-c2ccc(Cl)cc2)s1)*; X57 = O=C(c1nc2cc(Cl)ccc2[nH]1)*; X6 = Cn1c(C(=O)*)cc2cc(Cl)ccc21; X45 = O=C(c1cc(C(F)(F)F)ccn1)*; X64 = O=C(c1noc(-c2ccccc2)n1)*; X2 = O=C(c1cc(Cl)cc(Cl)n1)*; X17 = O=C(c1ncc(Br)cc1Cl)*; X1 = O=C(c1ncc(Cl)cc1Cl)*; X50 = O=C(c1sc(Br)cc1Br)*; X29 = O=C(c1cc(Cl)ccn1)*; X59 = Cn1c(Br)ccc1C(=O)*; Dab = NCC[C@H](N)C(=O)O; Abu = CC[C@H](N)C(=O)O; Dap = NC[C@H](N)C(=O)O

[
  {
    "Compound": "CC[C@@H]1NC(=O)[C@@H](CC(C)C)NC(=O)[C@H](CCN)NC(=O)[C@@H](NC(=O)[C@H](CN)NC(=O)[C@@H](NC(=O)[C@H](CCN)NC(=O)c2cc(C(F)(F)F)ccn2)[C@@H](C)O)CCNC(=O)[C@H]([C@@H](C)O)NC(=O)[C@H](CCN)NC(=O)[C@H](CCN)NC1=O [Compound 21] (X45-[Dab]T[Dap][Dab][Dab][dL][Abu][Dab][Dab]T; lactam 4-C)",
    "Comparison sign": "=",
    "Minimum inhibitory concentration [µg/mL]": 0.25
  },
  {
    "Compound": "CC[C@@H]1NC(=O)[C@@H](CC(C)C)NC(=O)[C@H](CCN)NC(=O)[C@@H](NC(=O)[C@H](CN)NC(=O)[C@@H](NC(=O)[C@H](CCN)NC(=O)c2cc(Cl)cc(Cl)n2)[C@@H](C)O)CCNC(=O)[C@H]([C@@H](C)O)NC(=O)[C@H](CCN)NC(=O)[C@H](CCN)NC1=O [Compound 18] (X2-[Dab]T[Dap][Dab][Dab][dL][Abu][Dab][Dab]T; lactam 4-C)",
    "Comparison sign": "=",
    "Minimum inhibitory concentration [µg/mL]": 0.25
  },
  {
    "Compound": "CC[C@@H]1NC(=O)[C@@H](CC(C)C)NC(=O)[C@H](CCN)NC(=O)[C@@H](NC(=O)[C@H](CN)NC(=O)[C@@H](NC(=O)[C@H](CCN)NC(=O)c2cc3cc(Cl)ccc3n2C)[C@@H](C)O)CCNC(=O)[C@H]([C@@H](C)O)NC(=O)[C@H](CCN)NC(=O)[C@H](CCN)NC1=O [Compound 58] (X6-[Dab]T[Dap][Dab][Dab][dL][Abu][Dab][Dab]T; lactam 4-C)",
    "Comparison sign": "=",
    "Minimum inhibitory concentration [µg/mL]": 0.5
  },
  {
    "Compound": "CC(C)C[C@H]1NC(=O)[C@H](CCN)NC(=O)[C@@H](NC(=O)[C@H](CN)NC(=O)[C@@H](NC(=O)[C@H](CCN)NC(=O)c2ccc(-c3ccc(Cl)cc3)s2)[C@@H](C)O)CCNC(=O)[C@H]([C@@H](C)O)NC(=O)[C@H](CCN)NC(=O)[C@H](CCN)NC(=O)[C@H]([C@@H](C)O)NC1=O [Compound 17] (X37-[Dab]T[Dap][Dab][Dab][dL]T[Dab][Dab]T; lactam 4-C)",
    "Comparison sign": "=",
    "Minimum inhibitory concentration [µg/mL]": 1
  },
  {
    "Compound": "CC[C@@H]1NC(=O)[C@@H](CC(C)C)NC(=O)[C@H](CCN)NC(=O)[C@@H](NC(=O)[C@H](CN)NC(=O)[C@@H](NC(=O)[C@H](CCN)NC(=O)c2ccc(Br)n2C)[C@@H](C)O)CCNC(=O)[C@H]([C@@H](C)O)NC(=O)[C@H](CCN)NC(=O)[C@H](CCN)NC1=O [Compound 93] (X59-[Dab]T[Dap][Dab][Dab][dL][Abu][Dab][Dab]T; lactam 4-C; N-terminus assumed)",
    "Comparison sign": "=",
    "Minimum inhibitory concentration [µg/mL]": 0.5
  },
  {
    "Compound": "CC(C)C[C@H]1NC(=O)[C@H](CCN)NC(=O)[C@@H](NC(=O)[C@H](CN)NC(=O)[C@@H](NC(=O)[C@H](CCN)NC(=O)c2sc(Br)cc2Br)[C@@H](C)O)CCNC(=O)[C@H]([C@@H](C)O)NC(=O)[C@H](CCN)NC(=O)[C@H](CCN)NC(=O)[C@H]([C@@H](C)O)NC1=O [Compound 100] (X50-[Dab]T[Dap][Dab][Dab][dL]T[Dab][Dab]T; lactam 4-C)",
    "Comparison sign": "<",
    "Minimum inhibitory concentration [µg/mL]": 0.125
  },
  {
    "Compound": "CC[C@@H]1NC(=O)[C@@H](CC(C)C)NC(=O)[C@H](CCN)NC(=O)[C@@H](NC(=O)[C@H](CN)NC(=O)[C@@H](NC(=O)[C@H](CCN)NC(=O)c2cc(Cl)ccn2)[C@@H](C)O)CCNC(=O)[C@H]([C@@H](C)O)NC(=O)[C@H](CCN)NC(=O)[C@H](CCN)NC1=O [Compound 26] (X29-[Dab]T[Dap][Dab][Dab][dL][Abu][Dab][Dab]T; lactam 4-C)",
    "Comparison sign": "=",
    "Minimum inhibitory concentration [µg/mL]": 0.25
  },
  {
    "Compound": "CC[C@@H]1NC(=O)[C@@H](CC(C)C)NC(=O)[C@H](CCN)NC(=O)[C@@H](NC(=O)[C@H](CN)NC(=O)[C@@H](NC(=O)[C@H](CCN)NC(=O)c2noc(-c3ccccc3)n2)[C@@H](C)O)CCNC(=O)[C@H]([C@@H](C)O)NC(=O)[C@H](CCN)NC(=O)[C@H](CCN)NC1=O [Compound 81] (X64-[Dab]T[Dap][Dab][Dab][dL][Abu][Dab][Dab]T; lactam 4-C)",
    "Comparison sign": "=",
    "Minimum inhibitory concentration [µg/mL]": 1
  },
  {
    "Compound": "CC(C)C[C@H]1NC(=O)[C@H](CCN)NC(=O)[C@@H](NC(=O)[C@H](CN)NC(=O)[C@@H](NC(=O)[C@H](CCN)NC(=O)c2ncc(Cl)cc2Cl)[C@@H](C)O)CCNC(=O)[C@H]([C@@H](C)O)NC(=O)[C@H](CCN)NC(=O)[C@H](CCN)NC(=O)[C@H](C)NC1=O [Compound 10] (X1-[Dab]T[Dap][Dab][Dab][dL]A[Dab][Dab]T; lactam 4-C)",
    "Comparison sign": "=",
    "Minimum inhibitory concentration [µg/mL]": 0.25
  },
  {
    "Compound": "CC[C@@H]1NC(=O)[C@@H](CC(C)C)NC(=O)[C@H](CCN)NC(=O)[C@@H](NC(=O)[C@H](CN)NC(=O)[C@@H](NC(=O)[C@H](CCN)NC(=O)c2nc3cc(Cl)ccc3[nH]2)[C@@H](C)O)CCNC(=O)[C@H]([C@@H](C)O)NC(=O)[C@H](CCN)NC(=O)[C@H](CCN)NC1=O [Compound 71] (X57-[Dab]T[Dap][Dab][Dab][dL][Abu][Dab][Dab]T; lactam 4-C)",
    "Comparison sign": "=",
    "Minimum inhibitory concentration [µg/mL]": 0.5
  },
  {
    "Compound": "CC[C@@H]1NC(=O)[C@@H](CC(C)C)NC(=O)[C@H](CCN)NC(=O)[C@@H](NC(=O)[C@H](CN)NC(=O)[C@@H](NC(=O)[C@H](CCN)NC(=O)c2ncc(Br)cc2Cl)[C@@H](C)O)CCNC(=O)[C@H]([C@@H](C)O)NC(=O)[C@H](CCN)NC(=O)[C@H](CCN)NC1=O [Compound 33] (X17-[Dab]T[Dap][Dab][Dab][dL][Abu][Dab][Dab]T; lactam 4-C)",
    "Comparison sign": "=",
    "Minimum inhibitory concentration [µg/mL]": 0.25
  }
]

----------
Below: a set of entries, each annotated with reported Minimum inhibitory concentration.
- System: Pseudomonas aeruginosa FADDI-PA01
- Format: cell-based
- Setup conditions: FADDI-
Where a SMILES comes first, the peptide text is derived from it. Bridges are numbered along the chain shown (N, C = ends). [ ]: non-standard residue; d: D form. The star is where a group is joined. X20 = O=C(c1ccc(C(F)(F)F)s1)*; X1 = O=C(c1ncc(Cl)cc1Cl)*; X29 = O=C(c1cc(Cl)ccn1)*; Dab = NCC[C@H](N)C(=O)O; Abu = CC[C@H](N)C(=O)O; Dap = NC[C@H](N)C(=O)O

[
  {
    "Compound": "C[C@@H]1NC(=O)[C@@H](Cc2ccccc2)NC(=O)[C@H](CCN)NC(=O)[C@@H](NC(=O)[C@H](CN)NC(=O)[C@@H](NC(=O)[C@H](CCN)NC(=O)c2ncc(Cl)cc2Cl)[C@@H](C)O)CCNC(=O)[C@H]([C@@H](C)O)NC(=O)[C@H](CCN)NC(=O)[C@H](CCN)NC1=O [Compound 9] (X1-[Dab]T[Dap][Dab][Dab][dF]A[Dab][Dab]T; lactam 4-C)",
    "Minimum inhibitory concentration": "0.25 µg/mL"
  },
  {
    "Compound": "CC[C@@H]1NC(=O)[C@@H](CC(C)C)NC(=O)[C@H](CCN)NC(=O)[C@@H](NC(=O)[C@H](CN)NC(=O)[C@@H](NC(=O)[C@H](CCN)NC(=O)c2cc(Cl)ccn2)[C@@H](C)O)CCNC(=O)[C@H]([C@@H](C)O)NC(=O)[C@H](CCN)NC(=O)[C@H](CCN)NC1=O [Compound 26] (X29-[Dab]T[Dap][Dab][Dab][dL][Abu][Dab][Dab]T; lactam 4-C)",
    "Minimum inhibitory concentration": "0.25 µg/mL"
  },
  {
    "Compound": "CC[C@@H]1NC(=O)[C@@H](CC(C)C)NC(=O)[C@H](CCN)NC(=O)[C@@H](NC(=O)[C@H](CN)NC(=O)[C@@H](NC(=O)[C@H](CCN)NC(=O)c2ccc(C(F)(F)F)s2)[C@@H](C)O)CCNC(=O)[C@H]([C@@H](C)O)NC(=O)[C@H](CCN)NC(=O)[C@H](CCN)NC1=O [Compound 86] (X20-[Dab]T[Dap][Dab][Dab][dL][Abu][Dab][Dab]T; lactam 4-C)",
    "Minimum inhibitory concentration": "0.5 µg/mL"
  }
]

Values compiled from patent US11225505B2.
